molecular target: human CD3E&G complex (Sino Biological Inc., CT041-H0305H) (human) (UniProt P07766); test: SPR, antigen on chip
Sequence (P07766 23-126, chain 1 of 2): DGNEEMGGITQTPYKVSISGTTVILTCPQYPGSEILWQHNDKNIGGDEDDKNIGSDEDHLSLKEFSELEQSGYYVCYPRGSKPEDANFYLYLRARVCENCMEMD
Sequence (P09693 23-116, chain 2 of 2, further chain): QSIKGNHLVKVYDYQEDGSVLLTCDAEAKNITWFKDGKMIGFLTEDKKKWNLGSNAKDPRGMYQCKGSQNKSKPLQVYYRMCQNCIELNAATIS
readout-name: kon (M⁻¹ s⁻¹)
Note: unit M⁻¹ s⁻¹ is implicit; provide only the numeric part.

In: So what does the record say about kon for SGN70-sp34.99LH (bispecific antibody, part only; not given: anti-CD70 Fab arm and Fc, not shown: another chain or arm of the molecule; a dimerising Fc or GST) scFv: QAVVTQEPSLTVSPGGTVTLTCRSSTGAVTTSNYANWVQQKPGQAPRGLIGGTNKRAPGVPARFSGSLLGDKAALTLLGAQPEDEAEYYCALWYSNLWVFGQGTKLTVLGGGGSGGGGSGGGGSGGGGSEVQLVESGGGLVQPGGSLKLSCAASGFTFNTYAMNWVRQASGKGLEWVGRIRSKYNNYATYYADSVKDRFTISRDDSKSTLYLQMNSLKTEDTAVYYCARHGNAYQSYVSWFAYWGQGTTVTVSS ?
Out: 123000

In: So what does the record say about kon for SGN70-sp34.80LH (bispecific antibody, part only; not given: anti-CD70 Fab arm and Fc, not shown: another chain or arm of the molecule; a dimerising Fc or GST) scFv: QAVVTQEPSLTVSPGGTVTLTCRSSTGAVTTSNYANWVQQKPGQAPRGLIGGTNKRAPGVPARFSGSLLGDKAALTLLGAQPEDEAEYYCALWYSNLWVFGQGTKLTVLGGGGSGGGGSGGGGSGGGGSEVQLVESGGGLVQPGGSLKLSCAASGFTFNTAAMNWVRQASGKGLEWVGRIRSKYNNYATYYADSVKDRFTISRDDSKSTLYLQMNSLKTEDTAVYYCARHGNFGQSYVSWFAYWGQGTTVTVSS ?
Out: 49700

In: So what does the record say about kon for SGN70-sp34.97HL (bispecific antibody, part only; not given: anti-CD70 Fab arm and Fc, not shown: another chain or arm of the molecule; a dimerising Fc or GST) scFv: EVQLVESGGGLVQPGGSLKLSCAASGFTFNTYAMNWVRQASGKGLEWVGRIRSKAGGYATYYADSVKDRFTISRDDSKSTLYLQMNSLKTEDTAVYYCARHGNFGQSYVSWFAYWGQGTTVTVSSGGGGSGGGGSGGGGSGGGGSQAVVTQEPSLTVSPGGTVTLTCRSSTGAVTTSNYANWVQQKPGQAPRGLIGGTNKRAPGVPARFSGSLLGDKAALTLLGAQPEDEAEYYCALWYSNLWVFGQGTKLTVL ?
Out: 79900

In: So what does the record say about kon for SGN70-sp34.101HL (bispecific antibody, part only; not given: anti-CD70 Fab arm and Fc, not shown: another chain or arm of the molecule; a dimerising Fc or GST; large carriers) scFv: EVQLVESGGGLVQPGGSLKLSCAASGFTFNTYAMNWVRQASGKGLEWVGRIRSKYNNYATYYADSVKDRFTISRDDSKSTLYLQMNSLKTEDTAVYYCARHGNFGQSAASWFAYWGQGTTVTVSSGGGGSGGGGSGGGGSGGGGSQAVVTQEPSLTVSPGGTVTLTCRSSTGAVTTSNYANWVQQKPGQAPRGLIGGTNKRAPGVPARFSGSLLGDKAALTLLGAQPEDEAEYYCALWYSNLWVFGQGTKLTVL ?
Out: 347000

The measurements presented in this section are drawn from patent US20230374132A1.
